test system: K-562 leukemia growth, % test/control; test: Anticancer human tumor K-562 cell line growth inhibition; details: second compound 3.16 µM; first compound 0.1 µM; stronger effect = lower value; spheroids with HUVEC and MSC;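 also: spheroids exposed to compounds for 7 days; 100% = DMSO vehicle wells and lower values mean fewer viable cells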

Compound	Unit Tag	viability, T/C
O=C(C=Cn1cnc(-c2cc(C(F)(F)F)cc(C(F)(F)F)c2)n1)NNc1cnccn1 + NC1CCC(NC2CC2c2ccccc2)CC1	%	38.8
Cn1ncnc1C1c2n[nH]c(=O)c3cc(F)cc(c23)NC1c1ccc(F)cc1 (stereo unspecified) + NC1CCC(NC2CC2c2ccccc2)CC1	%	101
CC(C)CC(NC(=O)C(Cc1ccccc1)NC(=O)c1cnccn1)B(O)O (stereo unspecified) + NC1CC1c1ccc(-c2cccc(O)c2)cc1	%	0.44
Nc1ncn(C2CC(O)C(CO)O2)c(=O)n1 (stereo unspecified) + NC1CC1c1ccc(-c2cccc(O)c2)cc1	%	80.4
O=C(c1cc(Cc2n[nH]c(=O)c3ccccc23)ccc1F)N1CCN(C(=O)C2CC2)CC1 + NC1CCC(NC2CC2c2ccccc2)CC1	%	101
COc1ccc([C@@H](O)c2cc(-c3ncnc4cc(N5CCOCC5)ccc34)c(F)cc2Cl)nn1 + NC1CCC(NC2CC2c2ccccc2)CC1	%	102
CC1(C)CCC(CN2CCN(c3ccc(C(=O)NS(=O)(=O)c4ccc(NCC5CCOCC5)c([N+](=O)[O-])c4)c(Oc4cnc5[nH]ccc5c4)c3)CC2)=C(c2ccc(Cl)cc2)C1 + NC1CC1c1ccc(-c2cccc(O)c2)cc1	%	105
O=C(C=Cn1cnc(-c2cc(C(F)(F)F)cc(C(F)(F)F)c2)n1)NNc1cnccn1 + NC1CC1c1ccc(-c2cccc(O)c2)cc1	%	37.6
O=C(c1cc(Cc2n[nH]c(=O)c3ccccc23)ccc1F)N1CCN(C(=O)C2CC2)CC1 + NC1CC1c1ccc(-c2cccc(O)c2)cc1	%	101
Nc1ncn(C2CC(O)C(CO)O2)c(=O)n1 (stereo unspecified) + NC1CCC(NC2CC2c2ccccc2)CC1	%	68.4
CC(C)CC(NC(=O)CNC(=O)c1cc(Cl)ccc1Cl)B1OC(=O)CC(CC(=O)O)(C(=O)O)O1 (stereo unspecified) + NC1CCC(NC2CC2c2ccccc2)CC1	%	5.71
CC[C@@]1(O)C(=O)OCc2c1cc1n(c2=O)Cc2cc3c(CN(C)C)c(O)ccc3nc2-1 + NC1CCC(NC2CC2c2ccccc2)CC1	%	4.79
COc1cc(Nc2ncc3c(n2)-c2ccc(Cl)cc2C(c2c(F)cccc2OC)=NC3)ccc1C(=O)O + NC1CC1c1ccc(-c2cccc(O)c2)cc1	%	14
CC1COCCN1c1cc(-c2ccnn2C)c2ccnc(-c3ccn[nH]3)c2n1 (stereo unspecified) + NC1CCC(NC2CC2c2ccccc2)CC1	%	3.8
CC(C)c1c(-c2ccccc2)nc2c(C#N)c[nH]n2c1=O + NC1CC1c1ccc(-c2cccc(O)c2)cc1	%	97.7
CC1COCCN1c1cc(-c2ccnn2C)c2ccnc(-c3ccn[nH]3)c2n1 (stereo unspecified) + NC1CC1c1ccc(-c2cccc(O)c2)cc1	%	1.71
Cn1ncnc1C1c2n[nH]c(=O)c3cc(F)cc(c23)NC1c1ccc(F)cc1 (stereo unspecified) + NC1CC1c1ccc(-c2cccc(O)c2)cc1	%	93.2
CC1COCCN1c1cc(C2(S(C)(=N)=O)CC2)nc(-c2ccnc3[nH]ccc23)n1 (stereo unspecified) + NC1CCC(NC2CC2c2ccccc2)CC1	%	99.7
CC[C@@]1(O)C(=O)OCc2c1cc1n(c2=O)Cc2cc3c(CN(C)C)c(O)ccc3nc2-1 + NC1CC1c1ccc(-c2cccc(O)c2)cc1	%	6.02
CC1(C)CCC(CN2CCN(c3ccc(C(=O)NS(=O)(=O)c4ccc(NCC5CCOCC5)c([N+](=O)[O-])c4)c(Oc4cnc5[nH]ccc5c4)c3)CC2)=C(c2ccc(Cl)cc2)C1 + NC1CCC(NC2CC2c2ccccc2)CC1	%	103
CC(C)CC(NC(=O)C(Cc1ccccc1)NC(=O)c1cnccn1)B(O)O (stereo unspecified) + NC1CCC(NC2CC2c2ccccc2)CC1	%	0.99
CC1COCCN1c1cc(C2(S(C)(=N)=O)CC2)nc(-c2ccnc3[nH]ccc23)n1 (stereo unspecified) + NC1CC1c1ccc(-c2cccc(O)c2)cc1	%	105
COc1ccc([C@@H](O)c2cc(-c3ncnc4cc(N5CCOCC5)ccc34)c(F)cc2Cl)nn1 + NC1CC1c1ccc(-c2cccc(O)c2)cc1	%	99.6
COc1cc(Nc2ncc3c(n2)-c2ccc(Cl)cc2C(c2c(F)cccc2OC)=NC3)ccc1C(=O)O + NC1CCC(NC2CC2c2ccccc2)CC1	%	21.4
CC(C)CC(NC(=O)CNC(=O)c1cc(Cl)ccc1Cl)B1OC(=O)CC(CC(=O)O)(C(=O)O)O1 (stereo unspecified) + NC1CC1c1ccc(-c2cccc(O)c2)cc1	%	2.3
CC(C)c1c(-c2ccccc2)nc2c(C#N)c[nH]n2c1=O + NC1CCC(NC2CC2c2ccccc2)CC1	%	102

---

system: K-562 leukemia growth, % test/control; assay: Anticancer human tumor K-562 cell line growth inhibition; conditions: second compound 1 µM; first compound 0.003 µM; spheroids with HUVEC and MSC; active means viability on the fitted dose curve at most 10% of control; inactive means the rest;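 also: spheroids exposed to compounds for 7 days; 100% = DMSO vehicle wells and lower values mean fewer viable cells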
Outcomes: yes = active, no = inactive

>>> df
                                   compound  class
0  CCc1c2c(nc3ccc(O)cc13)-c1cc3c(c(=O)n1C2)COC(=O)[C@]3(O)CC + NC1CCC(NC2CC2c2ccccc2)CC1    yes
1  CCc1c2c(nc3ccc(O)cc13)-c1cc3c(c(=O)n1C2)COC(=O)[C@]3(O)CC + NC1CC1c1ccc(-c2cccc(O)c2)cc1    yes
2  Nc1ncn(C2CC(O)C(CO)S2)c(=O)n1 (stereo unspecified) + NC1CCC(NC2CC2c2ccccc2)CC1     no
3  Nc1ccn(C2OC(CO)C(O)C2(F)F)c(=O)n1 (stereo unspecified) + NC1CC1c1ccc(-c2cccc(O)c2)cc1     no
4  Nc1ccn(C2OC(CO)C(O)C2(F)F)c(=O)n1 (stereo unspecified) + NC1CCC(NC2CC2c2ccccc2)CC1    yes
5  Nc1ncn(C2CC(O)C(CO)S2)c(=O)n1 (stereo unspecified) + NC1CC1c1ccc(-c2cccc(O)c2)cc1     no

---

test system: K-562 leukemia growth, % test/control; assay: Anticancer human tumor K-562 cell line growth inhibition; conditions: second compound 10 µM; first compound 0.00949 µM; stronger effect = lower value; spheroids with HUVEC and MSC;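 also: spheroids exposed to compounds for 7 days; 100% = DMSO vehicle wells and lower values mean fewer viable cells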
Measured viability, T/C, listed per entry.
Readout Label: viability, T/C (%)

                                   compound  value_reported
0  CCN(c1cc(-c2ccc(CN3CCOCC3)cc2)cc(C(=O)NCc2c(C)cc(C)[nH]c2=O)c1C)C1CCOCC1 + NC1CC1c1ccc(-c2cccc(O)c2)cc1             105
1  Nc1ncn(C2CC(O)C(CO)S2)c(=O)n1 (stereo not given) + NC1CC1c1ccc(-c2cccc(O)c2)cc1              98
2  CCN(c1cc(-c2ccc(CN3CCOCC3)cc2)cc(C(=O)NCc2c(C)cc(C)[nH]c2=O)c1C)C1CCOCC1 + NC1CCC(NC2CC2c2ccccc2)CC1             103
3  COc1cc(C2c3cc4c(cc3C(OC3OC5COC(C)OC5C(O)C3O)C3COC(=O)C23)OCO4)cc(OC)c1O (stereo not given) + NC1CCC(NC2CC2c2ccccc2)CC1            83.2
4  CCc1c2c(nc3ccc(O)cc13)-c1cc3c(c(=O)n1C2)COC(=O)[C@]3(O)CC + NC1CCC(NC2CC2c2ccccc2)CC1             1.7

---

Tested on: K-562 leukemia growth, % test/control
Test: Anticancer human tumor K-562 cell line growth inhibition;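 also: spheroids exposed to compounds for 7 days; 100% = DMSO vehicle wells and lower values mean fewer viable cells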
Details: second compound 10 µM; first compound 10 µM; stronger effect = lower value; spheroids with HUVEC and MSC
Source text: Multicellular complex tumor spheroid response to LSD1 Inhibitor Iadademstat in combination with a variety of drugs and investigational agents in selected tumor cell lines The current study was undertaken to assess response to LSD1 inhibitors in combination with standard-of-care drugs and investigational agents in solid tumor complex spheroid models as well as in the K-562 leukemia. […] Compounds. […] If the clinical Cmax for an agent had not been determined, the highest concentration tested was 10 microM. […]
Measured viability, T/C, listed per entry.

Compound	Assay Target	viability, T/C, %
COc1ccc([C@@H](O)c2cc(-c3ncnc4cc(N5CCOCC5)ccc34)c(F)cc2Cl)nn1 + NC1CC1c1ccc(-c2cccc(O)c2)cc1	K-562 leukemia growth, % test/control	24.6
O=C(c1cc(Cc2n[nH]c(=O)c3ccccc23)ccc1F)N1CCN(C(=O)C2CC2)CC1 + NC1CCC(NC2CC2c2ccccc2)CC1	K-562 leukemia growth, % test/control	53.3
CC1(C)CCC(CN2CCN(c3ccc(C(=O)NS(=O)(=O)c4ccc(NCC5CCOCC5)c([N+](=O)[O-])c4)c(Oc4cnc5[nH]ccc5c4)c3)CC2)=C(c2ccc(Cl)cc2)C1 + NC1CCC(NC2CC2c2ccccc2)CC1	K-562 leukemia growth, % test/control	20.5
O=C(c1cc(Cc2n[nH]c(=O)c3ccccc23)ccc1F)N1CCN(C(=O)C2CC2)CC1 + NC1CC1c1ccc(-c2cccc(O)c2)cc1	K-562 leukemia growth, % test/control	44.7
COc1ccc([C@@H](O)c2cc(-c3ncnc4cc(N5CCOCC5)ccc34)c(F)cc2Cl)nn1 + NC1CCC(NC2CC2c2ccccc2)CC1	K-562 leukemia growth, % test/control	41
CC(C)c1c(-c2ccccc2)nc2c(C#N)c[nH]n2c1=O + NC1CC1c1ccc(-c2cccc(O)c2)cc1	K-562 leukemia growth, % test/control	92
CC(C)c1c(-c2ccccc2)nc2c(C#N)c[nH]n2c1=O + NC1CCC(NC2CC2c2ccccc2)CC1	K-562 leukemia growth, % test/control	98.4
CC1(C)CCC(CN2CCN(c3ccc(C(=O)NS(=O)(=O)c4ccc(NCC5CCOCC5)c([N+](=O)[O-])c4)c(Oc4cnc5[nH]ccc5c4)c3)CC2)=C(c2ccc(Cl)cc2)C1 + NC1CC1c1ccc(-c2cccc(O)c2)cc1	K-562 leukemia growth, % test/control	1.78
CC1COCCN1c1cc(C2(S(C)(=N)=O)CC2)nc(-c2ccnc3[nH]ccc23)n1 (stereo not given) + NC1CC1c1ccc(-c2cccc(O)c2)cc1	K-562 leukemia growth, % test/control	2.52
CC1COCCN1c1cc(C2(S(C)(=N)=O)CC2)nc(-c2ccnc3[nH]ccc23)n1 (stereo not given) + NC1CCC(NC2CC2c2ccccc2)CC1	K-562 leukemia growth, % test/control	2.14

Recorded values, source PubChem BioAssay AID1918948.
